Reported remaining activity at 10 µM values for a set of molecules
target: p38α MAP kinase (Homo sapiens); experiment: Radiometric 33PanQinase p38α MAP kinase assay (ProQinase), ATF2 substrate; type: biochemical; details: compound at 10 μM, in duplicate; read-out: Residual Activity (%) p38α
Sequence (Q16539 whole entry): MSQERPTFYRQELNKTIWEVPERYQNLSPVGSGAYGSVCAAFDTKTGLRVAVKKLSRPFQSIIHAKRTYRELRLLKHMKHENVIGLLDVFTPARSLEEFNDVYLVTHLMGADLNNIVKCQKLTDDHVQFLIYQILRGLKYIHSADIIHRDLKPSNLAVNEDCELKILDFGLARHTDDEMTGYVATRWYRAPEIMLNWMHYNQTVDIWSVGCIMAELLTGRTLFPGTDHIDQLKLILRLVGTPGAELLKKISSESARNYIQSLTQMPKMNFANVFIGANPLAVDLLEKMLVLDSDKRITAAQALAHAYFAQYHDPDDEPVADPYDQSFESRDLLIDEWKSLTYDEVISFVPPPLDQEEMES
Unit % implied. Number only.

Solved cases below.
molecule: CN(C)c1cccc(-c2c(-c3ccc4nccnc4c3)cnn2CC(=O)Nc2ccccc2F)n1 [Compound 15b]
target entity: p38α MAP kinase (Homo sapiens)
unit symbol: %
remaining activity at 10 µM: 117
//
molecule: CN(C)c1cccc(-c2nn(CC(=O)Nc3cccc(C#N)c3)cc2-c2ccc3nccnc3c2)n1 [Compound 14d]
target entity: p38α MAP kinase (Homo sapiens)
unit symbol: %
remaining activity at 10 µM: 121
//
molecule: Cc1csc(-c2nn(CC(=O)Nc3cccc(C#N)c3)cc2-c2ccc3nccnc3c2)n1 [Compound 16d]
target entity: p38α MAP kinase (Homo sapiens)
unit symbol: %
remaining activity at 10 µM: 108
//
molecule: CN(C)c1cccc(-c2c(-c3ccc4nccnc4c3)cnn2CC(=O)Nc2cccc(F)c2)n1 [Compound 15c]
target entity: p38α MAP kinase (Homo sapiens)
unit symbol: %
remaining activity at 10 µM: 109
//
molecule: Cc1csc(-c2c(-c3ccc4nccnc4c3)cnn2CC(=O)Nc2ccccc2F)n1 [Compound 17b]
target entity: p38α MAP kinase (Homo sapiens)
unit symbol: %
remaining activity at 10 µM: 54

Param item = Cc1csc(-c2nn(CC(=S)Nc3cccc(F)c3)cc2-c2ccc3nccnc3c2)n1 [Compound 19c] ; retrieve measured remaining activity at 10 µM.
109

Would you mind doing Cc1cccc(-c2nn3c(c2-c2ccnc4ccc(C(N)=O)cc24)CCC3)n1 [Compound 3, LY-2157299, reference compound] as well?
4

Similarly, CN(C)c1cccc(-c2nn(CC(=O)Nc3cccc(F)c3)cc2-c2ccc3nccnc3c2)n1 [Compound 14c] ?
121

###

target: ALK5 (Homo sapiens, UniProt P36897); test: Radiometric 33PanQinase ALK5 kinase assay (ProQinase), casein substrate; type: biochemical
Sequence (P36897 205-495 limits assumed): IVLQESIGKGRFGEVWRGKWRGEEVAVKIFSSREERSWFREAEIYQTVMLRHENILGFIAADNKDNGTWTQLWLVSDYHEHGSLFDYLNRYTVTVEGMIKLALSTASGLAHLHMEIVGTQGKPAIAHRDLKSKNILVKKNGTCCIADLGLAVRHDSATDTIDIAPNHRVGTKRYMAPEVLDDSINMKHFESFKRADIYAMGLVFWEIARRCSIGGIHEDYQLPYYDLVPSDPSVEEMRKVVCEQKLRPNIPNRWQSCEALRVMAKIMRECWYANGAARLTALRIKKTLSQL
reported endpoint: IC50 (µM)
Only the number, expressed in µM, is required.

compound: Cc1csc(-c2nn(CC(=S)Nc3ccccc3F)cc2-c2ccc3nccnc3c2)n1 [Compound 19b]
IC50, µM: 0.28
//
compound: O=C(Cn1cc(-c2ccc3nccnc3c2)c(-c2ccncn2)n1)Nc1ccccc1 [Compound 25a]
IC50, µM: 5.03
//
compound: CN(C)c1cccc(-c2nn(CC(=S)Nc3ccccc3)cc2-c2ccc3nccnc3c2)n1 [Compound 18a]
IC50, µM: 5.75
//
compound: N#Cc1cccc(NC(=S)Cn2cc(-c3ccc4nccnc4c3)c(-c3ccncn3)n2)c1 [Compound 27d]
IC50, µM: 2.26
//
compound: N#Cc1cccc(NC(=O)Cn2cc(-c3ccc4nccnc4c3)c(-c3ccncn3)n2)c1 [Compound 25d]
IC50, µM: 4.12
//
compound: Cc1csc(-c2nn(CC(=S)Nc3cccc(F)c3)cc2-c2ccc3nccnc3c2)n1 [Compound 19c]
IC50, µM: 0.33

# ---- query compound ----
Look up IC50: Cc1csc(-c2nn(CC(=S)Nc3ccccc3)cc2-c2ccc3nccnc3c2)n1 [Compound 19a]
0.57

###

Measured melting point, listed per entry for reference.

For orientation, consider the following solved cases.
compound: CN(C)c1cccc(-c2nn(CC(=S)Nc3ccccc3)cc2-c2ccc3nccnc3c2)n1 [Compound 18a]
melting point: 182 to 184 °C

compound: CN(C)c1cccc(-c2nn(CC(=S)Nc3ccccc3F)cc2-c2ccc3nccnc3c2)n1 [Compound 18b]
melting point: 88.3 to 91.2 °C

compound: CN(C)c1cccc(-c2c(-c3ccc4nccnc4c3)cnn2CC(=O)Nc2cccc(C#N)c2)n1 [Compound 15d]
melting point: 145.5 to 148 °C

compound: CN(C)c1cccc(-c2nn(CC(=O)Nc3cccc(C#N)c3)cc2-c2ccc3nccnc3c2)n1 [Compound 14d]
melting point: 218.5 to 221.5 °C

# get_value(readout='melting point', item= O=C(Cn1cc(-c2ccc3nccnc3c2)c(-c2ccncn2)n1)Nc1ccccc1 [Compound 25a] )
170.3 to 172.5 °C

And what about the compound CN(C)c1cccc(-c2nn(CC(=S)Nc3cccc(F)c3)cc2-c2ccc3nccnc3c2)n1 [Compound 18c] ?
68.5 to 70.2 °C

What do you get for CN(C)c1cccc(-c2nn(CC(=S)Nc3cccc(C#N)c3)cc2-c2ccc3nccnc3c2)n1 [Compound 18d] ?
108.5 to 110 °C

Next: CN(C)c1cccc(-c2nn(CC(=O)Nc3ccccc3F)cc2-c2ccc3nccnc3c2)n1 [Compound 14b]
190.5 to 193 °C

Next up: Cc1csc(-c2nn(CC(=O)Nc3cccc(F)c3)cc2-c2ccc3nccnc3c2)n1 [Compound 16c]
212.1 to 213.5 °C

Next compound up: O=C(Cn1cc(-c2ccc3nccnc3c2)c(-c2ccncn2)n1)Nc1ccccc1F [Compound 25b]
192.3 to 194.5 °C

###

target: ALK5 (Homo sapiens); assay: Radiometric 33PanQinase ALK5 kinase assay (ProQinase), casein substrate; type: biochemical
reported endpoint: IC50

Use the examples below as a reference point.
molecule: CN(C)c1cccc(-c2nn(CC(=S)Nc3cccc(F)c3)cc2-c2ccc3nccnc3c2)n1 [Compound 18c]
reported endpoint: IC50
measured value: 5 µM
//
molecule: O=C(Cn1cc(-c2ccc3nccnc3c2)c(-c2ccncn2)n1)Nc1ccccc1F [Compound 25b]
reported endpoint: IC50
measured value: 3.66 µM

# input molecule: CN(C)c1cccc(-c2nn(CC(=S)Nc3ccccc3F)cc2-c2ccc3nccnc3c2)n1 [Compound 18b] ; wanted: its IC50
> 10 µM

One more molecule: Cc1csc(-c2nn(CC(=S)Nc3cccc(C#N)c3)cc2-c2ccc3nccnc3c2)n1 [Compound 19d]
0.37 µM

Continue with Fc1ccccc1NC(=S)Cn1cc(-c2ccc3nccnc3c2)c(-c2ccncn2)n1 [Compound 27b]
> 10 µM

###

Biological target: ALK5 (Homo sapiens)
Test: Radiometric 33PanQinase ALK5 kinase assay (ProQinase), casein substrate
Assay type: biochemical
Conditions: IC50 of p38α/IC50 of ALK5
Method: To investigate whether compounds 14a–d, 15a–d, 16a–d, 17a–d, 18a–d, and 19a–d would inhibit ALK5, a kinase assay for preliminary screening was performed using the purified human ALK5 kinase domain produced in Sf9 insect cells and compounds at 10 μM. All kinase experiments were completed by the ProQinase (Freiburg, Germany). […]
reported endpoint: Selectivity Index

compound: Cc1csc(-c2nn(CC(=S)Nc3ccccc3F)cc2-c2ccc3nccnc3c2)n1 [Compound 19b]
Selectivity Index: >35

compound: O=C(Cn1cc(-c2ccc3nccnc3c2)c(-c2ccncn2)n1)Nc1ccccc1F [Compound 25b]
Selectivity Index: >3

compound: Cc1csc(-c2nn(CC(=S)Nc3cccc(F)c3)cc2-c2ccc3nccnc3c2)n1 [Compound 19c]
Selectivity Index: >30

compound: O=C(Cn1cc(-c2ccc3nccnc3c2)c(-c2ccncn2)n1)Nc1ccccc1 [Compound 25a]
Selectivity Index: >2

compound: CN(C)c1cccc(-c2nn(CC(=S)Nc3ccccc3)cc2-c2ccc3nccnc3c2)n1 [Compound 18a]
Selectivity Index: >2

What value of Selectivity Index has been recorded for this entry: Cc1csc(-c2nn(CC(=S)Nc3cccc(C#N)c3)cc2-c2ccc3nccnc3c2)n1 [Compound 19d]
>27

Now give it for CN(C)c1cccc(-c2nn(CC(=S)Nc3cccc(F)c3)cc2-c2ccc3nccnc3c2)n1 [Compound 18c] too.
>2

Try this compound too: N#Cc1cccc(NC(=S)Cn2cc(-c3ccc4nccnc4c3)c(-c3ccncn3)n2)c1 [Compound 27d]
>4

What about Cc1csc(-c2nn(CC(=S)Nc3ccccc3)cc2-c2ccc3nccnc3c2)n1 [Compound 19a] ?
>17

Also need N#Cc1cccc(NC(=O)Cn2cc(-c3ccc4nccnc4c3)c(-c3ccncn3)n2)c1 [Compound 25d] , thanks.
>2

###

Reported remaining activity at 10 µM values follow for various compounds
molecular target: ALK5 (Homo sapiens, UniProt P36897); test: Radiometric 33PanQinase ALK5 kinase assay (ProQinase), casein substrate; type: biochemical; conditions: compound at 10 μM, in duplicate; read-out: Residual Activity (%) ALK5
Give a bare numeral; the unit % is implied.

Worked cases, remaining activity at 10 µM given:
compound: Cc1csc(-c2nn(CC(=O)Nc3cccc(C#N)c3)cc2-c2ccc3nccnc3c2)n1 [Compound 16d]
unit symbol: %
remaining activity at 10 µM: 3
--
compound: Cc1csc(-c2nn(CC(=S)Nc3ccccc3)cc2-c2ccc3nccnc3c2)n1 [Compound 19a]
unit symbol: %
remaining activity at 10 µM: 5
--
compound: CN(C)c1cccc(-c2nn(CC(=S)Nc3ccccc3)cc2-c2ccc3nccnc3c2)n1 [Compound 18a]
unit symbol: %
remaining activity at 10 µM: 29
--
compound: CN(C)c1cccc(-c2c(-c3ccc4nccnc4c3)cnn2CC(=O)Nc2ccccc2F)n1 [Compound 15b]
unit symbol: %
remaining activity at 10 µM: 87

Looking for the measured remaining activity at 10 µM of Cc1csc(-c2c(-c3ccc4nccnc4c3)cnn2CC(=O)Nc2cccc(C#N)c2)n1 [Compound 17d] , can you help?
58

Proceed to Cc1cccc(-c2nn3c(c2-c2ccnc4ccc(C(N)=O)cc24)CCC3)n1 [Compound 3, LY-2157299, reference compound]
1

CN(C)c1cccc(-c2nn(CC(=S)Nc3cccc(F)c3)cc2-c2ccc3nccnc3c2)n1 [Compound 18c] , same question.
29

One more compound: Cc1csc(-c2c(-c3ccc4nccnc4c3)cnn2CC(=O)Nc2ccccc2)n1 [Compound 17a]
46

Also Cc1csc(-c2nn(CC(=S)Nc3cccc(F)c3)cc2-c2ccc3nccnc3c2)n1 [Compound 19c] , if possible.
2
